target: human M1 (Homo sapiens); construct: expressed in transfected cells; host or cells: CHO cells; experiment: M1 PAM assay (FLIPR intracellular calcium, CHO human M1); assay type: cell-based
Sequence (P11229 whole entry): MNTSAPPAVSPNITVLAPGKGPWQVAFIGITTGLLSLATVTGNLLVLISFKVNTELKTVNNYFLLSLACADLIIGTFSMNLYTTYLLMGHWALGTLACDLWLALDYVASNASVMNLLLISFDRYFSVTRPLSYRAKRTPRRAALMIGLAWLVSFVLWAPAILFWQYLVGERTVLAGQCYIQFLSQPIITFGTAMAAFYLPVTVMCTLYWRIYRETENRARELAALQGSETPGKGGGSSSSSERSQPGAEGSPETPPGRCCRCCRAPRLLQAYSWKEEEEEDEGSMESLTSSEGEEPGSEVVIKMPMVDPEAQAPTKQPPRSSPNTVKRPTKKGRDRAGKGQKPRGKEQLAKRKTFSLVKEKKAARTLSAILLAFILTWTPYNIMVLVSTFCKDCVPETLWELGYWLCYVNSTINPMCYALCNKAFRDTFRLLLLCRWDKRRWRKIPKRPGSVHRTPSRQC
pEC50: −log10 of the molar value.
The compounds listed here are annotated with their pEC50.
MEASURED ATTRIBUTE: pEC50

1) Cn1cc(-c2ccc(Cn3cc(C(=O)N[C@H]4CCCC[C@]4(C)O)c4ncccc43)c(F)c2)cn1 (racemic) [Example 39] : 6.75
2) CNC(=O)c1ccc(Cn2cc(C(=O)N[C@H]3CCCC[C@@H]3O)c3ncccc32)cc1 [Example 61] : 8.04
3) Cn1cc(-c2ccc(Cn3cc(C(=O)N[C@H](CO)c4ccccc4)c4ncccc43)c(F)c2)cn1 [Example 32] : 7.05
4) NC(=O)c1ccc(Cn2cc(C(=O)N[C@@H]3CCOC[C@H]3O)c3ncccc32)cc1 (stereo in doubt) [Example 63a] : 6.54
5) Cn1cc(-c2ccc(Cn3cc(C(=O)N[C@@H]4COCC[C@H]4O)c4ncccc43)c(F)c2)cn1 [Example 42] : 6.31
6) CC(C)[C@H](CO)NC(=O)c1cn(Cc2ccc(-c3cnn(C)c3)cc2F)c2cccnc12 [Example 21] : 6.70
7) CCC(CO)NC(=O)c1cn(Cc2ccc(-c3cnn(C)c3)cc2F)c2cccnc12 (centres unmarked) [Example 13] : 6.71
8) Cn1cc(-c2ccc(Cn3cc(C(=O)N[C@H]4CCCC[C@@H]4O)c4ncccc43)cn2)cn1 [Example 56] : 7.46
9) N#Cc1ccc(Cn2cc(C(=O)N[C@H]3CCCC[C@@H]3O)c3ncccc32)c(F)c1 [Example 53] : 6.49
10) Cn1cc(-c2ccc(Cn3cc(C(=O)N[C@H]4CCCC[C@@H]4O)c4ncccc43)cc2)cn1 [Example 55] : 7.95
11) O=C(N[C@H]1CCCC[C@@H]1O)c1cn(Cc2ccc(-c3nccs3)cc2)c2cccnc12 [Example 60] : 7.42
